Every entry's value here was drawn from ChEMBL document CHEMBL1121819.

Measured ED50, listed per entry.
Test system: Rattus norvegicus
ASSAY_METHOD_TEXT: Anticonvulsant activity measured to prevent maximal electroshock seizure in rats when administered intraperitoneally
Format: functional
CONDITIONS: ip

[[record]]
compound = "O=C1NC(=O)C(c2ccccc2)(c2ccccc2)N1"
reported_metric = "ED50"
observed_value = "9.6 mg/kg"

[[record]]
compound = "CCOC(=O)CN1C(=O)NC(Cc2cccc(C(F)(F)F)c2)C1=O (stereo not given)"
reported_metric = "ED50"
observed_value = "> 50 mg/kg"

[[record]]
compound = "COc1ccc(CC2NC(=O)NC2=O)cc1OC (stereo not given)"
reported_metric = "ED50"
observed_value = "> 50 mg/kg"

[[record]]
compound = "CC1(Cc2ccc3ccccc3c2)NC(=O)NC1=O (stereo not given)"
reported_metric = "ED50"
observed_value = "> 50 mg/kg"

[[record]]
compound = "O=C1NC(=O)C(Cc2cccc(Cl)c2)N1 (stereo not given)"
reported_metric = "ED50"
observed_value = "> 50 mg/kg"

[[record]]
compound = "O=C1NC(=O)/C(=C\\c2cccc(C(F)(F)F)c2)N1"
reported_metric = "ED50"
observed_value = "~50 mg/kg"

[[record]]
compound = "O=C1NC(=O)/C(=C\\c2cccc(Cl)c2)N1"
reported_metric = "ED50"
observed_value = "~50 mg/kg"

[[record]]
compound = "O=C1NC(=O)C(c2ccccc2)(c2cccc(C(F)(F)F)c2)N1 (stereo not given)"
reported_metric = "ED50"
observed_value = "> 50 mg/kg"

[[record]]
compound = "O=C1NC(=O)C(Cc2cccc(C(F)(F)F)c2)N1 (stereo not given)"
reported_metric = "ED50"
observed_value = "23 mg/kg"


Input line: Identify the reported ED50 for the following entry. COc1ccc(OC)c(/C=C2/NC(=O)NC2=O)c1
Output line: > 50 mg/kg

---

Measured LD50, listed per entry.
ASSAY_METHOD_TEXT: Acute toxicity of was measured in rat by ip administration of the compound
Type: organism-based
CONDITIONS: in vivo
State the answer as a number, implicitly in mg/kg.

Input line: Identify the reported LD50 for the following entry. O=C1NC(=O)C(c2ccccc2)(c2ccccc2)N1
Output line: 280

Input line: Identify the reported LD50 for the following entry. O=C1NC(=O)C(Cc2cccc(C(F)(F)F)c2)N1 (configuration not stated)
Output line: 410

---

System: Rattus norvegicus
ASSAY_METHOD_TEXT: Anticonvulsant activity measured to prevent maximal electroshock seizure in rats when administered intraperitoneally
Type: functional
CONDITIONS: ip
REPORTED_METRIC: ED50

Example entries begin here.
[[record]]
molecule = "O=C1NC(Cc2cccc(C(F)(F)F)c2)C(=O)N1CCBr (stereo not drawn)"
target_desc = "Rattus norvegicus"
observed_value = "> 50 mg/kg"

[[record]]
molecule = "CC1(Cc2cccc(C(F)(F)F)c2)NC(=O)NC1=O (stereo not drawn)"
target_desc = "Rattus norvegicus"
observed_value = "> 50 mg/kg"


# next molecule below
Input line: Identify the reported ED50 for the following entry. COc1ccc(CC2(C)NC(=O)NC2=O)cc1OC (stereo not drawn)
Output line: > 50 mg/kg
